target: human PD-L1 expressed on cell surface (human, UniProt Q9NZQ7 19-290); experiment: cell-based or functional assay
Sequence (Q9NZQ7 19-290 limits assumed): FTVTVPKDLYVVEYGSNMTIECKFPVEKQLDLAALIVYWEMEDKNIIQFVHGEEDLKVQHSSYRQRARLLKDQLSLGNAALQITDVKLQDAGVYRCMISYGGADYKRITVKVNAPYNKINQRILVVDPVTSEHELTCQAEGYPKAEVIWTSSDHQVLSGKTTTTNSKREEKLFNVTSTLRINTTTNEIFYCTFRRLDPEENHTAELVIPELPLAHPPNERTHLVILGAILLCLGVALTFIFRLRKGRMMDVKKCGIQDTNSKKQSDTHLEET
Recorded Internalization (%), FACS, 1 µg/ml, 2 h values for a group of binders are listed next.
// note: answer is a bare numeric in %

57F11 (antibody, human IgG1, V domains shown) VH: QEHLEESGGGLVQPEGALTLTCTASGFSFSGDYYMSWVRQAPGKGLEWIASIYTGSLNTYYATWAKGRFTISIASSTTVTLQVTSLTAADTATYFCARRTKNGDYGYFDLWGPGTLVTVSS VL: YDMTQTPASVEVAVGGTVTIKCQASQSINDRLAWYQQKPGQPPKLLIYAASTLASGVPSRFKGSGSGTEFTLTISDLECADAATYYCQQGWTVSSLENAFGGGTEVVAK; 16.7

## Input Data request, read-out Internalization (%), FACS, 1 µg/ml, 2 h, for 33H7 (antibody, human IgG1, V domains shown) VH: QEQLVESGGGLVQPEGSLTVTCTASGFDLSRYFYMSWVRQAPGKGLEWIASISTGSDITDYASWAKGRFTISKTSSTTVTLQMTTLTAADTAIYFCARWTSGGGGFGLWGPGTLVTVSS VL: QVLTQTASPVSAAVGGTVTLNCQSSQSIYNNYLSWYQQRAGQPPKLLIYSTATLASGVPSRFKGSGSGTQFTLTISEIQCEDAATYYCQGYYSGYIWTFGGGTEVVVK
## Output 14.4

## Input Dear colleague, I am looking for the recorded Internalization (%), FACS, 1 µg/ml, 2 h of the following binder: 56H3 (antibody, human IgG1, V domains shown) VH: QEQLVESGGGLVQPEGSLTLTCTASEFSFSNNYYMSWVRQAPGKGLEWLGSIGIGSGITDYASWAKGRFTISKASSTTVTLQMTTLTAADTAIYFCARWTSGGGGFGLWGPGTLVTVSS VL: QVLTQTSSPVSAAVGGTVTINCQSSQTIYSDYLFWYQQKPGQPPKLLIYQTSTLASGVPSRFSGSGSGTQFTLTISGVQCDDAATYYCQGYYSGYIWTFGGGTEVVVN
## Output 15.3
